Biological target: CYP2D6 (Homo sapiens)
Construct: enzyme, pooled human hepatic microsome 0.2 mg protein/mL; from tissue; host or cells: pooled human liver microsomes
Sequence (P10635 whole entry): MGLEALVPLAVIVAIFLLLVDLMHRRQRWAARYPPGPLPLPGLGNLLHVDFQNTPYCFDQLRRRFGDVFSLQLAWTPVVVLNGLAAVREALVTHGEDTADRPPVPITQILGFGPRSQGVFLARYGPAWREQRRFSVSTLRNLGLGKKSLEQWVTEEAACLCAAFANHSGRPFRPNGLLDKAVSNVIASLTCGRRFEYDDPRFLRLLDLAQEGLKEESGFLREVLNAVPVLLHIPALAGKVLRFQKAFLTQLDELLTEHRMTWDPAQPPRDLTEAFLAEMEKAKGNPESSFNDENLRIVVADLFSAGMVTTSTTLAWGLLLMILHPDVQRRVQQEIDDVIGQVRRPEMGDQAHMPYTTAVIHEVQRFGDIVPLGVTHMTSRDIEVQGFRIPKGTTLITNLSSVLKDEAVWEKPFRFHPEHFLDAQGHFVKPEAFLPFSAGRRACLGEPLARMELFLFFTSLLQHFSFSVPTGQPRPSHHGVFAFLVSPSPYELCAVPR
Experiment: CYP inhibition assay, CYP2D6 (dextromethorphan O-demethylation)
Type: in vitro ADME
Conditions: pooled human hepatic microsome, 15 minutes, 37° C.

compound	IC50
Cc1c(-c2c(C)c3c(c(C)c2[C@H](OC(C)(C)C)C(=O)O)NS(=O)(=O)Cc2ccccc2-3)ccc2c1CCCO2 [Compound 10]	≥ 20 µM

---

Biological target: CYP3A4 (Homo sapiens, UniProt P08684)
Construct: enzyme, pooled human hepatic microsome 0.2 mg protein/mL; from tissue; host or cells: pooled human liver microsomes
Sequence (P08684 whole entry): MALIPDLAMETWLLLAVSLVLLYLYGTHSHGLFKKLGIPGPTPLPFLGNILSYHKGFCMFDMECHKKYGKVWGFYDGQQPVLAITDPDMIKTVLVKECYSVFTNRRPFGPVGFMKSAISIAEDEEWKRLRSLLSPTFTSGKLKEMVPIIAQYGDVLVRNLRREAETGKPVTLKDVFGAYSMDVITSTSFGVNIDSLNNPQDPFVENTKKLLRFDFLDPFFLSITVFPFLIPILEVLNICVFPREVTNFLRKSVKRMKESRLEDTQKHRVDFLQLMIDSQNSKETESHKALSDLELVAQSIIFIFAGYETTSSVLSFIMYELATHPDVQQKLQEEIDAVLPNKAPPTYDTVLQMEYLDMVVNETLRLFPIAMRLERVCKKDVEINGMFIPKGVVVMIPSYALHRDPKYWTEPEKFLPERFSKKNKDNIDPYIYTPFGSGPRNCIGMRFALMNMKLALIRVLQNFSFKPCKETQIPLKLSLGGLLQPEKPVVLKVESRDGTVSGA
Test: CYP inhibition assay, CYP3A4 (terfenedine hydroxylation)
Assay type: in vitro ADME
Conditions: pooled human hepatic microsome, 15 minutes, 37° C.
Method: Using commercially available pooled human hepatic microsome, and employing, as markers, 7-ethoxyresorufin O-deethylation (CYP1A2), tolbutamide methyl-hydroxylation (CYP2C9), mephenytoin 4′-hydroxylation (CYP2C19), dextromethorphan O-demethylation (CYP2D6), and terfenedine hydroxylation (CYP3A4) as typical substrate metabolism reactions of human main five CYP enzyme forms (CYP1A2, 2C9, 2C19, 2D6, 3A4), an inhibitory degree of each metabolite production amount by a test compound was assessed. […]
pIC50: −log10 of the molar value.
propertyMeasured: pIC50

querySmiles	propertyMeasured	result
Cc1c(-c2c(C)c3c(c(C)c2[C@H](OC(C)(C)C)C(=O)O)NS(=O)(=O)Cc2ccccc2-3)ccc2c1CCCO2	pIC50	≤ 4.70

---

Biological target: CYP2C19 (Homo sapiens, UniProt P33261)
Construct: enzyme, pooled human hepatic microsome 0.2 mg protein/mL; from tissue; host or cells: pooled human liver microsomes
Sequence (P33261 whole entry): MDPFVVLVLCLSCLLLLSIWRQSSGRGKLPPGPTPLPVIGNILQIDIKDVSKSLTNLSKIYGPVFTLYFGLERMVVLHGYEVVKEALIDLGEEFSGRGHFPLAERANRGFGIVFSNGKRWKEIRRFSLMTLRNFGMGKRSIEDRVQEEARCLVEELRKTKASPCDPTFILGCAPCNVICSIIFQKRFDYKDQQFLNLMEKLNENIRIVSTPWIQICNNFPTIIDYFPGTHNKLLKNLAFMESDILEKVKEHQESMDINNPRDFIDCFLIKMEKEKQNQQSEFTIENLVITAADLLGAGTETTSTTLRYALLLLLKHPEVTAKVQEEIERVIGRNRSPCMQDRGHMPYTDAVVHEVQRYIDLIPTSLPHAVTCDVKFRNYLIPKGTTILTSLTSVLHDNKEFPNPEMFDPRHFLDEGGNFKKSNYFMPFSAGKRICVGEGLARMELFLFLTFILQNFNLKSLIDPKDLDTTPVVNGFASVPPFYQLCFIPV
Experiment: CYP inhibition assay, CYP2C19 (mephenytoin 4'-hydroxylation)
Format: in vitro ADME
Conditions: pooled human hepatic microsome, 15 minutes, 37° C.
propertyMeasured: IC50

compound	result
Cc1c(-c2c(C)c3c(c(C)c2[C@H](OC(C)(C)C)C(=O)O)NS(=O)(=O)Cc2ccccc2-3)ccc2c1CCCO2 [Compound 10]	≥ 20 µM

---

Tested on: HIV (HTLV-III B strain)
Experiment: HIV replication inhibition assay (MTT, MT-4 cells)
Format: cell-based
Conditions: Human immunodeficiency virus 1, MT4, 96 h, Table A-2, four days
Examples of compounds with documented log10 of EC50 follow.
propertyMeasured: log10 of EC50 (log10 of the value in nM)

compound	number
Cc1ccc(-c2c([C@H](OC(C)(C)C)C(=O)O)c(C)c3ncc4cc5ccccc5nc4c3c2C)cc1	1.99
Cc1ccc(-c2c(C)c3c(c(C)c2[C@H](OC(C)(C)C)C(=O)O)N(S(C)(=O)=O)Cc2cc(F)c(F)cc2-3)cc1	1.08
COc1ccc2c(c1)CN(S(C)(=O)=O)c1c(C)c([C@H](OC(C)(C)C)C(=O)O)c(-c3ccc(C)cc3)c(C)c1-2	0.58
Cc1ccc(-c2c(C)c3c(c(C)c2[C@H](OC(C)(C)C)C(=O)O)N(S(C)(=O)=O)Cc2cccc(F)c2-3)cc1	0.96
Cc1ccc(-c2c(C)c3c(c(C)c2[C@H](OC(C)(C)C)C(=O)O)NS(=O)(=O)N(Cc2ccc(F)cc2)CC3)cc1	0.68
Cc1ccc(-c2c(C)c3c(c(C)c2[C@H](OC(C)(C)C)C(=O)O)NS(=O)(=O)N(CC2CCCCC2)CC3)cc1	1.08
Cc1ccc(-c2c(C)c3c(c(C)c2[C@H](OC(C)(C)C)C(=O)O)NC(=O)C2(C[C@@H]4CC[C@H]2C4)N3)cc1 (stereo partly shown)	0.93
Cc1ccc(-c2c(C)c3c(c(C)c2[C@H](OC(C)(C)C)C(=O)O)NS(=O)(=O)/C=C/CCCCO3)cc1	1.32
Cc1ccc(-c2c(C)c3c(c(C)c2[C@H](OC(C)(C)C)C(=O)O)NS(=O)(=O)N(C2CCOCC2)CC3)cc1	1.94
Cc1ccc(-c2c(C)c3c(c(C)c2[C@H](OC(C)(C)C)C(=O)O)NC(=O)C2(CCC(C)(C)CC2)N3)cc1	0.93
Cc1ccc(-c2c(C)c3c(c(C)c2[C@H](OC(C)(C)C)C(=O)O)NS(=O)(=O)N(C2CCCC2)CC3)cc1	0.89
Cc1ccc(-c2c(C)c3c(c(C)c2[C@H](OC(C)(C)C)C(=O)O)N(S(C)(=O)=O)Cc2ccc(C)cc2-3)cc1	1.23
Cc1ccc(-c2c([C@H](OC(C)(C)C)C(=O)O)c(C)c3nc(O)c4cc(C(F)(F)F)ccc4c3c2C)cc1	1.34
Cc1ccc(-c2c([C@H](OC(C)(C)C)C(=O)O)c(C)c3nc(O)c4cc(C)ccc4c3c2C)cc1	1.51
Cc1ccc(-c2c(C)c3c(c(C)c2[C@H](OC(C)(C)C)C(=O)O)NS(=O)(=O)N(C(c2ccccc2)c2ccccc2)CC3)cc1	1.79
Cc1ccc(-c2c(C)c3c(c(C)c2[C@H](OC(C)(C)C)C(=O)O)NC(=O)C2(CCC2)N3)cc1	0.89
Cc1ccc(-c2c(C)c3c(c(C)c2[C@H](OC(C)(C)C)C(=O)O)N(S(C)(=O)=O)Cc2cc(C)ccc2-3)cc1	0.78
Cc1ccc(-c2c(C)c3c(c(C)c2[C@H](OC(C)(C)C)C(=O)O)NS(=O)(=O)N(C2CCCCC2)CC3)cc1	1.04
Cc1ccc(-c2c(C)c3c(c(C)c2[C@H](OC(C)(C)C)C(=O)O)NS(=O)(=O)N(C2CCCCCC2)CC3)cc1	1.00
COCCN1CCc2c(C)c(-c3ccc(C)cc3)c([C@H](OC(C)(C)C)C(=O)O)c(C)c2NS1(=O)=O	1.34
Cc1ccc(-c2c(C)c3c(c(C)c2[C@H](OC(C)(C)C)C(=O)O)NS(=O)(=O)Cc2cccc(C)c2-3)cc1	1.59
Cc1ccc(-c2c([C@H](OC(C)(C)C)C(=O)O)c(C)c3nc(O)c4cc(F)cnc4c3c2C)cc1	1.00

---

System: HIV (HTLV-III B strain)
Assay: HIV replication inhibition assay (MTT, MT-4 cells)
Assay type: cell-based
Settings: 4 days culture, concentration at which cell cytotoxicity by virus is inhibited 50%
Description: HIV (HTLV-III B strain) persistent infected human T cell strain Molt-4 clone 8 was cultured in 10% Fetal Bovine Serum-containing RPMI-1640 medium and the supernatant was filtrated, then the virus titer was measured and the solution was stored at −80° C. Each anti-human immunodeficiency virus active substance was diluted with the above cultured medium to the designated concentration, which was dispensed into 96 well micro plate by 50 μL. […]
pEC50: −log10 of the molar value.

molecule	targetEntity	pEC50
Cc1c2c(c(C)c(C(OC(C)(C)C)C(=O)O)c1-c1ccc3c(c1)CCCO3)NC(=O)N(Cc1ccccc1)C2 (stereo not drawn) [Compound 7]	HIV (HTLV-III B strain)	8.02
Cc1c(-c2c(C)c3c(c(C)c2[C@H](OC(C)(C)C)C(=O)O)NS(=O)(=O)Cc2ccccc2-3)ccc2c1CCCO2 [Compound 10]	HIV (HTLV-III B strain)	8.62
Cc1cc(Cl)ccc1-c1c(C)c2c(c(C)c1[C@H](OC(C)(C)C)C(=O)O)N(S(C)(=O)=O)Cc1c(F)ccc(F)c1-2 [Compound 318]	HIV (HTLV-III B strain)	7.77
Cc1c(C(OC(C)(C)C)C(=O)O)c(-c2ccc3c(c2)CCCO3)c(C)c2c1[nH]c(=O)n2Cc1ccccc1 (stereo not drawn) [Compound 3]	HIV (HTLV-III B strain)	7.19
Cc1cc(Cl)ccc1-c1c(C)c2c(c(C)c1[C@H](OC(C)(C)C)C(=O)O)N(S(C)(=O)=O)Cc1c(F)ccc(F)c1-2 [Compound 317]	HIV (HTLV-III B strain)	7.15
Cc1c(-c2c([C@H](OC(C)(C)C)C(=O)O)c(C)c3nc(O)c4ccccc4c3c2C)ccc2c1CCCO2 [Compound 8]	HIV (HTLV-III B strain)	7.21
